- Test system: LXRb homodimer (NR concentration 270 nM)
- TEST SUMMARY: PBM binding z-score (relative to random genomic background probes); higher = stronger binding; sequences stand for … in GC…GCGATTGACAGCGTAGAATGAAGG
Where PBM binding z-score equals or exceeds 0.4, the correct label is Criterion met; where it does not, the label is Criterion not met.

Query: Dear colleague, could you confirm whether "CGTCCAAGGTCAAAGGTCAGGGAAGAGATGACGG" has PBM binding z-score at or above 0.4?
Result: Criterion met

Query: Dear colleague, could you confirm whether "CCTTACCGGTCAAGGTTATAGCACGGGTGGTACG" has PBM binding z-score at or above 0.4?
Result: Criterion not met

Query: Dear colleague, could you confirm whether "TCTCGGAGGACACGAAAGGTGAGAGCTCGACATC" has PBM binding z-score at or above 0.4?
Result: Criterion not met

Query: Dear colleague, could you confirm whether "ATATGTAGGTCATCGGGTCATTCAGTTTGCGCAT" has PBM binding z-score at or above 0.4?
Result: Criterion met

Query: Dear colleague, could you confirm whether "GCATATAGGTAATTCAAGGTGAAAGTCCGATTGT" has PBM binding z-score at or above 0.4?
Result: Criterion not met

Query: Dear colleague, could you confirm whether "CCAGAAAGGTGAAAGGTAACTCAGTCTGGTACGC" has PBM binding z-score at or above 0.4?
Result: Criterion not met

Query: Dear colleague, could you confirm whether "CAAACTAGGTCACCAGGACAGTGAAGAGGTTGGA" has PBM binding z-score at or above 0.4?
Result: Criterion not met

Query: Dear colleague, could you confirm whether "TAGCCTAGGTCATGCGGGCCAGCATAGTGTCGGC" has PBM binding z-score at or above 0.4?
Result: Criterion not met

Query: Dear colleague, could you confirm whether "TAGCCTAGGTCATTGGGCCAGTATAGTACGCATC" has PBM binding z-score at or above 0.4?
Result: Criterion not met

Query: Dear colleague, could you confirm whether "TAGCCTAGCTCATTCAGGGGCCAGTATAGAAAGC" has PBM binding z-score at or above 0.4?
Result: Criterion not met

Query: Dear colleague, could you confirm whether "GATACGGGGTCAGCTAGAGGCCAGAGTATGGAAA" has PBM binding z-score at or above 0.4?
Result: Criterion met

Query: Dear colleague, could you confirm whether "CCTTACGGTTCACTGACAGGTTATAGCATTTGGA" has PBM binding z-score at or above 0.4?
Result: Criterion met

Query: Dear colleague, could you confirm whether "TCTCGGAGGACACGAAGGTCAGCGCTTTCCAGAG" has PBM binding z-score at or above 0.4?
Result: Criterion not met

Query: Dear colleague, could you confirm whether "CGAACTAGGTCCCCAGGACAGTGAAGAGGTTGGA" has PBM binding z-score at or above 0.4?
Result: Criterion not met
